- Target Or System: Menin/MLL (terbium chelate-labeled menin, FITC-MBM1 peptide) (Homo sapiens, UniProt O00255, T541A)
- Construct: Menin (a.a. 1-610-6×his tag) was labeled with terbium cryptate as follows
- Sequence (O00255 with tags, fused parts or gaps T541A): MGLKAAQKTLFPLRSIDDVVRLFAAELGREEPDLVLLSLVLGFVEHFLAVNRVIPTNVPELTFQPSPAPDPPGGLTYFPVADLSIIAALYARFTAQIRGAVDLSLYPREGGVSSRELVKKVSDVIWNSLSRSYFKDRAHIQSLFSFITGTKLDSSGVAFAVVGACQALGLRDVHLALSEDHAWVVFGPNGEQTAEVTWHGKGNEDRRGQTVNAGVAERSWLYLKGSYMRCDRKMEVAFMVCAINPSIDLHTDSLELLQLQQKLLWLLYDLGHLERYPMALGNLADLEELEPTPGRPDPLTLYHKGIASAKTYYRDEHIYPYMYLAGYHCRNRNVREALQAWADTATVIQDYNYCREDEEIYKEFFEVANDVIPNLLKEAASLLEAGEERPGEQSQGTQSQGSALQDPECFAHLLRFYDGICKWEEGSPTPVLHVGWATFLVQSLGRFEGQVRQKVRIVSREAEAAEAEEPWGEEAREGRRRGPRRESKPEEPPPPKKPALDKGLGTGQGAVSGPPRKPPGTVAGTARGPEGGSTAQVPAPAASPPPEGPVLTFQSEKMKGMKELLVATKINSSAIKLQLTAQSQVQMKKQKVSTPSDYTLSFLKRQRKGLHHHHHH
- Experiment Summary: Menin/MLL homogenous time-resolved fluorescence (HTRF) assay
- Type: binding
- Settings: averaged values over all measurements; read-out: Menin HTRF assay (IC50)
# class assignment by measured IC50: low range (below 70 nM), mid range (70 nM to below 500 nM), high range (500 nM or more)

{"Compound": "CC(C)(CO)CN1CC[C@@H]2CN(c3ncnc4sc(CC(F)(F)F)cc34)C[C@@H]2C1 (single isomer, unassigned)", "Group": "low range"}
{"Compound": "FC(F)(F)Cc1cc2c(N3C[C@H]4CCN(Cc5cccnc5Cl)C[C@H]4C3)ncnc2s1 (single isomer, unassigned)", "Group": "mid range"}
{"Compound": "Fc1cncc(CN2CC[C@@H]3CN(c4ncnc5sc(CC(F)(F)F)cc45)C[C@@H]3C2)c1 (single isomer, unassigned)", "Group": "mid range"}
{"Compound": "Cc1ccc(CN2CC[C@@H]3CN(c4ncnc5sc(CC(F)(F)F)cc45)C[C@@H]3C2)cn1 (single isomer, unassigned)", "Group": "low range"}
{"Compound": "Cn1cc(CN2CCCC3C2CCN3c2ncnc3sc(CC(F)(F)F)cc23)cn1 (stereo not shown)", "Group": "high range"}
{"Compound": "FC(F)(F)Cc1cc2c(N3C[C@H]4CCN(CC5CCCCO5)C[C@H]4C3)ncnc2s1 (single isomer, unassigned)", "Group": "low range"}
{"Compound": "Cn1cc(CN2CC3CN(c4ncnc5sc(CC(F)(F)F)cc45)CC3C2)cn1 (stereo not shown)", "Group": "high range"}
{"Compound": "FC(F)(F)Cc1cc2c(N3C[C@H]4CCN(Cc5cncnc5)C[C@H]4C3)ncnc2s1 (single isomer, unassigned)", "Group": "mid range"}
{"Compound": "COc1cncc(CN2CC[C@@H]3CN(c4ncnc5sc(CC(F)(F)F)cc45)C[C@@H]3C2)c1 (single isomer, unassigned)", "Group": "mid range"}
{"Compound": "Cn1cc(CN2CC[C@@H]3CN(c4ncnc5sc(CC(F)(F)F)cc45)C[C@@H]32)cn1 [Compound 27C]", "Group": "high range"}

Just for reference, patent US10611778B2 is where these values come from.
